- System: L1210 cells
- assayName: Growth inhibition of L1210 cells
- Format: cell-based
- conditionSummary: Mus musculus, L1210, L1210 cells; average of 3-6 runs; standard error less than 15%; read-out: growth inhibn (minimum inhibitory concentration50)
endpoint: pIC50
One number for each entry, as −log10 of the molar value.

- compound: "CCC(Cc1cnc2nc(N)nc(N)c2n1)c1ccc(C(=O)N[C@@H](CCC(=O)O)C(=O)O)cc1 (single isomer, unassigned) [l, L-10-ethyl, l,L-10-ethyl-10-deazaminopterin]"
  valueMeasured: 8.82
- compound: "CCC(Cc1cnc2nc(N)nc(N)c2n1)c1ccc(C(=O)N[C@@H](CCC(=O)O)C(=O)O)cc1 (stereo partly drawn) [d, L-10-ethyl, d,L-10-ethyl-10-deazaminopterin]"
  valueMeasured: 9.37

Query compound follows.
Problem: Recall the reported pIC50 of CC(Cc1cnc2nc(N)nc(N)c2n1)c1ccc(C(=O)N[C@@H](CCC(=O)O)C(=O)O)cc1 (single isomer, unassigned) [l, L-10-methyl, 10-methyl-10-deazaminopterin] on L1210 cells and write it down.
Solution: 8.93
